Would you mind telling me the reported pIC50 of each entry?
Tested on: HCC1937
Test: Antitumor activity against BRCA 1-deficient human HCC1937 cells incubated for 72 hrs by MTT assay
Format: functional, cell-based
Details: HCC1937, 72 h
Numbers only, as −log10 of the molar value.

// known answers, use as guide
COc1cc(OC)c(/C=C/S(=O)(=O)Cc2ccc(OC)c(NCC(=O)O)c2)c(OC)c1 : 6.48
COc1cc(OC)c(/C=C/S(=O)(=O)Cc2ccc(OC)c(NC(=O)CCCCC(=O)O)c2)c(OC)c1 : 5.28
COc1cc(OC)c(/C=C/S(=O)(=O)Cc2ccc(OC)c(NCCCC(=O)O)c2)c(OC)c1 : 5.97

Now look at this entry.
Kindly note the recorded pIC50 for O=C(c1cc(Cc2n[nH]c(=O)c3ccccc23)ccc1F)N1CCN(C(=O)C2CC2)CC1 , which is 5.27

----------
Test system: MDA-MB-436
Assay: Antitumor activity against BRCA 1-deficient human MDA-MB-436 cells incubated for 72 hrs by MTT assay
Format: functional, cell-based
Conditions: MDA-MB-436, 72 h
reported metric: pIC50
Numbers only, as −log10 of the molar value.

Completed entries (count: 4):
O=C(c1cc(Cc2n[nH]c(=O)c3ccccc23)ccc1F)N1CCNCC1 : 5.58
COc1cc(OC)c(/C=C/S(=O)(=O)Cc2ccc(OC)c(NC(=O)CCC(=O)O)c2)c(OC)c1 : 5.68
COc1cc(OC)c(/C=C/S(=O)(=O)Cc2ccc(OC)c(NC(=O)CCC(=O)N3CCN(C(=O)c4cc(Cc5n[nH]c(=O)c6ccccc56)ccc4F)CC3)c2)c(OC)c1 : 5.81
COc1cc(OC)c(/C=C/S(=O)(=O)Cc2ccc(OC)c(NCCCC(=O)O)c2)c(OC)c1 : 5.68

Please report pIC50 for every entry that follows.
1. COc1cc(OC)c(/C=C/S(=O)(=O)Cc2ccc(OC)c(NCCCCCC(=O)O)c2)c(OC)c1
2. COc1cc(OC)c(/C=C/S(=O)(=O)Cc2ccc(OC)c(NC(=O)CCCCC(=O)N3CCN(C(=O)c4cc(Cc5n[nH]c(=O)c6ccccc56)ccc4F)CC3)c2)c(OC)c1
3. COc1cc(OC)c(/C=C/S(=O)(=O)Cc2ccc(OC)c(NCCCC(=O)N3CCN(C(=O)c4cc(Cc5n[nH]c(=O)c6ccccc56)ccc4F)CC3)c2)c(OC)c1
4. COc1cc(OC)c(/C=C/S(=O)(=O)Cc2ccc(OC)c(NCCCCCC(=O)N3CCN(C(=O)c4cc(Cc5n[nH]c(=O)c6ccccc56)ccc4F)CC3)c2)c(OC)c1
5. COc1cc(OC)c(/C=C/S(=O)(=O)Cc2ccc(OC)c(NCC(=O)O)c2)c(OC)c1

1. 5.49
2. 5.42
3. 6.01
4. 5.66
5. 6.60

Parameters: items (list). Returns: pIC50 for each item.
1. COc1cc(OC)c(/C=C/S(=O)(=O)Cc2ccc(OC)c(NC(=O)CCCCC(=O)O)c2)c(OC)c1
2. COc1cc(OC)c(/C=C/S(=O)(=O)Cc2ccc(OC)c(NC(=O)CCCC(=O)N3CCN(C(=O)c4cc(Cc5n[nH]c(=O)c6ccccc56)ccc4F)CC3)c2)c(OC)c1
3. COc1cc(OC)c(/C=C/S(=O)(=O)Cc2ccc(OC)c(NCC(=O)N3CCN(C(=O)c4cc(Cc5n[nH]c(=O)c6ccccc56)ccc4F)CC3)c2)c(OC)c1
4. O=C(c1cc(Cc2n[nH]c(=O)c3ccccc23)ccc1F)N1CCN(C(=O)C2CC2)CC1
5. COc1cc(OC)c(/C=C/S(=O)(=O)Cc2ccc(OC)c(NC(=O)CCCC(=O)O)c2)c(OC)c1

[5.15, 5.71, 5.84, 5.37, 5.32]
